Reported normalised percent inhibition is given for each of the following molecules.
Tested on: Renilla luciferase (RLuc)
Test: normalised percent inhibition of luminescence (vs positive and negative controls); higher = stronger inhibition
Details: metal salt concentration 0.005 mM; screening conditions buffer
State the answer as a number, implicitly in %.

Reference set, count: 2
- O=[N+]([O-])[O-].O=[N+]([O-])[O-].[Cd+2] [cadmium nitrate]: -5.21
- [Cl][Sn][Cl] [tin(II) chloride]: -3.55

q: Suppose we examine the molecule [Cl][Fe]([Cl])[Cl] [iron(III) chloride] ; what normalised percent inhibition value has been reported?
a: -4.9

q: Suppose we examine the molecule O=[N+]([O-])[O-].O=[N+]([O-])[O-].[Zn+2] [zinc nitrate] ; what normalised percent inhibition value has been reported?
a: -7.07

q: Suppose we examine the molecule O=[N+]([O-])[O-].O=[N+]([O-])[O-].[Cu+2] [copper(II) nitrate] ; what normalised percent inhibition value has been reported?
a: -13.6
